tested on: T-47D cells; assay: Inhibition of cell proliferation in T-47D cells (CCK-8, 6 days); type: cell-based; conditions: 6 days of treatment, Table 3
pIC50: −log10 of the molar value.
assay_metric: pIC50

C[C@@H]1C[C@H](N2CCC3(CC2)COc2c3ccc3c2CN(C2CCC(=O)NC2=O)C3=O)CCN1C(=O)C1CCN(c2ccc([C@@H]3c4ccc(O)cc4CC[C@@H]3c3ccccc3)cc2)CC1 (some centres unmarked) | 9.00
CN(CC(=O)N1CC2(CCc3cc4c(cc3O2)C(=O)N(C2CCC(=O)NC2=O)C4)C1)C1CCC2(CC1)CN(c1ccc([C@@H]3c4ccc(O)cc4CC[C@@H]3c3ccccc3)cc1)C2 (some centres unmarked) | 7.95
O=C1CCC(N2Cc3c(ccc4c3OCC43CCN(CC4(F)CCN(CC5CCN(c6ccc([C@@H]7c8ccc(O)cc8CC[C@@H]7c7ccccc7)cc6)CC5)CC4)CC3)C2=O)C(=O)N1 (some centres unmarked) | 9.06

P = O=C1CCC(N2Cc3c(ccc4c3OCC43CCN(C4CCN(C(=O)C5CCN(c6ccc([C@@H]7c8ccc(O)cc8CC[C@@H]7c7ccccc7)cc6)CC5)[C@@H](C(=O)N5CCC(F)(F)CC5)C4)CC3)C2=O)C(=O)N1 (some centres unmarked)
Q = CC1(CN2CCC3(CC2)COc2c3ccc3c2CN(C2CCC(=O)NC2=O)C3=O)CCN(C(=O)C2CCN(c3ccc([C@@H]4c5ccc(O)cc5CC[C@@H]4c4ccccc4)cc3)CC2)CC1 (some centres unmarked)
[in] Smaller pIC50 value, P vs Q ? Respond using the label that marks the chosen record.
[out] Q

====

Target: ERα (Homo sapiens)
Sequence (P03372 whole entry): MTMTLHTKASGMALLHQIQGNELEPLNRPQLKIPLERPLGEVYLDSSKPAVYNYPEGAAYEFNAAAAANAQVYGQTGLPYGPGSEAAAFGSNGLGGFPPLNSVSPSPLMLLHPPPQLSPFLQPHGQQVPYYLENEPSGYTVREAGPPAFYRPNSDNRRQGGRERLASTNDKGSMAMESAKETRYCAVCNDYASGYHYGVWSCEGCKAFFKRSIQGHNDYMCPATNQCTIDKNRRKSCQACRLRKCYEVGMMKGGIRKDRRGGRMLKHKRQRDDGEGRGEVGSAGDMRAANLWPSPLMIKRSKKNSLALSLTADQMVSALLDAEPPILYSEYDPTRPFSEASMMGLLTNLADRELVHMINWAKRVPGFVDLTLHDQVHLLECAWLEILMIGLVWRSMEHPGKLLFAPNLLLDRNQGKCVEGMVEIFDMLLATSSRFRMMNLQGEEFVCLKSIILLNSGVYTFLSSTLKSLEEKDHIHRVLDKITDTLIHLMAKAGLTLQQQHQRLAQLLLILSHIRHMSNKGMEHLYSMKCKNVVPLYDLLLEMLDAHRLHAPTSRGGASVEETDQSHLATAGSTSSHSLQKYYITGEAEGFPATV
Experiment: Degradation of ERα in MCF-7 cells (immunoblotting, 4 h)
Assay type: cell-based
Conditions: 10nM compound
Description: MCF-7 cells were inoculated into 6-well plates at a density of 3×10^5 cells/well and cultured at 37°C, 5% CO2 for 24h. […] Protein immunoblotting: The total protein concentration in the collected cell lysate supernatant was determined by BCA Protein Concentration Assay Kit (Enhanced) (P0009, Beyotime). […] Protein profiles were analyzed by Image Studio Lite analysis software for grayscale values. […]
assay_metric: Degradation rate (%) of ERα in MCF-7 cells

Look over these answered cases.
O=C1CCC(N2Cc3c(ccc4c3OCC43CCN(C4CCN(C5CC6(CCN(c7ccc([C@@H]8c9ccc(O)cc9CC[C@@H]8c8ccccc8)cc7)CC6)C5)[C@@H](C(=O)NC5CC5)C4)CC3)C2=O)C(=O)N1 (some centres unmarked) [K27] | 86
O=C1CCC(N2C(=O)c3cc4c(cc3C2=O)OC2(CC4)CCN(C3CC4(CCN(c5ccc(C6c7ccc(O)cc7CCC6c6ccccc6)cc5)CC4)C3)CC2)C(=O)N1 (centres unmarked) [A10] | -3
O=C1CCC(N2Cc3c(ccc4c3OCC43CCN(C(=O)[C@H]4CC[C@@H](N(CC5CC5)CC5CCN(c6ccc([C@@H]7c8ccc(O)cc8CC[C@@H]7c7ccccc7)cc6)CC5)CC4)CC3)C2=O)C(=O)N1 (some centres unmarked) [N11] | 64
O=C1CCC(N2Cc3c(ccc4c3OCC43CCN(C4CC5(C4)CN(C4CCN(c6ccc([C@@H]7c8ccc(O)cc8CC[C@@H]7c7ccccc7)cc6)CC4)C5)CC3)C2=O)C(=O)N1 (some centres unmarked) [K12] | 44
O=C1CCC(N2Cc3cc4c(cc3C2=O)OC2(CC4)CN(C3CCC4(CC3)CCN(c3ccc(C5c6ccc(O)cc6CCC5c5ccccc5)cc3)CC4)C2)C(=O)N1 (centres unmarked) [A30] | 23

I = O=C1CCC(N2Cc3c(ccc4c3OCC43CCN(C(=O)[C@H]4CC[C@H](OC5CCN(c6ccc([C@@H]7c8ccc(O)cc8CC[C@@H]7c7ccccc7)cc6)CC5)CC4)CC3)C2=O)C(=O)N1 (some centres unmarked) [D8]
II = O=C1CCC(N2Cc3cc4c(cc3C2=O)CCC2(CN(CC3CCN(c5ccc([C@@H]6c7ccc(O)cc7CC[C@@H]6c6ccccc6)cc5)CC3)C2)O4)C(=O)N1 (some centres unmarked) [H2]
[in] Smaller Degradation rate (%) of ERα in MCF-7 cells value, I vs II ? Respond using the label that marks the chosen record.
[out] II
